The entries below are paired with their reported EC50.
System: HBV
Experiment: Anti-viral assay in HepG2.2.15 cells: HBV inhibitory activity (HBV DNA in culture medium by q-PCR)
Type: cell-based
Conditions: Hepatitis B virus, HepG2.2.15, 144 h, HepG2.2.15 cells, 6 days treatment, HBV DNA in culture medium by q-PCR, highest concentration 10 uM; read-out: EC50
Express the result in nM but write the number alone.

// solved cases for EC50 follow
INSERT INTO assay_data (compound, quantity_name, observed_result) VALUES
  ('CCOC(=O)C1=C([C@H]2CC[C@H](c3nc(CC(=O)O)co3)CC2)NC(c2nccs2)=NC1c1ccc(F)c(F)c1Cl (single isomer, unassigned) [Compound I-23-B]', 'EC50', 13),
  ('CCOC(=O)C1=C(C2CCC(c3cnn(C(C)CC(=O)O)c3)CC2)NC(c2nccs2)=NC1c1ccc(F)c(F)c1Cl (stereo not drawn) [Compound I-31]', 'EC50', 59);

With those in mind, consider the next compound.
Recorded EC50 (compound COC(=O)C1=C([C@H]2CC[C@H](c3nc(C(=O)O)co3)CC2)NC(c2nccs2)=NC1c1cccc(F)c1Cl (single isomer, unassigned) [Compound I-5-B] ): 60

----------
The entries below are paired with their reported EC50.
Test system: HBV
Assay: Anti-viral assay in HepG2.2.15 cells: HBV inhibitory activity (HBV DNA in culture medium by q-PCR)
Assay type: cell-based
Settings: Hepatitis B virus, HepG2.2.15, 144 h, HepG2.2.15 cells, 6 days treatment, HBV DNA in culture medium by q-PCR, highest concentration 10 uM; read-out: EC50
Express the result in nM but write the number alone.

// solved cases for EC50 follow
INSERT INTO measurements (compound, observed_result) VALUES
  ('CCOC(=O)C1=C([C@H]2CC[C@H](c3cc(C(=O)O)nn3C)CC2)NC(c2nccs2)=NC1c1ccc(F)c(F)c1Cl (single isomer, unassigned)', 63),
  ('CCOC(=O)C1=C(C2CCN(c3ccc(C(=O)O)cc3)CC2)NC(c2nccs2)=NC1c1ccc(F)c(F)c1Cl (single isomer, unassigned)', 20),
  ('COC(=O)C1=C(C2CCN(c3nccc(CC(=O)O)n3)CC2)NC(c2nccs2)=NC1c1ccc(F)cc1Cl (single isomer, unassigned)', 190),
  ('CCOC(=O)C1=C(C2CCN(c3nc(C)cc(C(=O)O)n3)CC2)NC(c2nccs2)=NC1c1ccc(F)c(F)c1Cl (single isomer, unassigned)', 37);

With those in mind, consider the next compound.
Recorded EC50 (compound CCOC(=O)C1=C(C2CCN(c3nc(C(=O)OCC)co3)C2)NC(c2nccs2)=NC1c1ccc(F)c(F)c1Cl (single isomer, unassigned) ): 770

----------
Test system: HBV
Test: Anti-viral assay in HepG2.2.15 cells: HBV inhibitory activity (HBV DNA in culture medium by q-PCR)
Format: cell-based
Settings: Hepatitis B virus, HepG2.2.15, 144 h, HepG2.2.15 cells, 6 days treatment, HBV DNA in culture medium by q-PCR, highest concentration 10 uM; read-out: EC50
quantity-name: EC50

// solved cases for EC50 follow
INSERT INTO results (compound, quantity_name, observed_result) VALUES
  ('CCOC(=O)C1=C([C@H]2CC[C@H](c3nc(C(=O)O)co3)CC2)NC(c2nccs2)=NC1c1cccc(F)c1C (single isomer, unassigned) [Compound I-11-B]', 'EC50', '37 nM'),
  ('COC(=O)C1=C(C2CCN(c3ncc(Cl)c(C(=O)O)n3)CC2)NC(c2nccs2)=NC1c1ccc(F)c(F)c1Cl (single isomer, unassigned) [II-26-B]', 'EC50', '45 nM'),
  ('CCOC(=O)C1=C([C@H]2CC[C@H](c3nc(C(=O)O)no3)CC2)NC(c2nccs2)=NC1c1ccc(F)c(F)c1Cl (some centres unmarked) [Compound I-45]', 'EC50', '71 nM'),
  ('COC(=O)C1=C([C@H]2CC[C@H](c3nc(CC(=O)O)c(C)o3)CC2)NC(c2nccs2)=NC1c1ccc(F)c(F)c1Cl (single isomer, unassigned) [Compound I-22-B]', 'EC50', '15 nM');

With those in mind, consider the next compound.
Recorded EC50 (compound CCOC(=O)C1=C([C@H]2CC[C@H](c3cnn(CCC(=O)O)c3)CC2)NC(c2nccs2)=NC1c1ccc(F)c(F)c1Cl (single isomer, unassigned) [Compound I-32-B] ): < 4.6 nM

Origin of the recorded values: patent US11053235B2
